Value source: the supplement of paper PMC10126150

Field: switch fluorescence ratio. Provide a value for each of the sequences that follow.
Tested on: ATP;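 also: ATP exposure 15 min at 22 °C before imaging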
Assay: switch fluorescence ratio, 500 uM ATP over buffer (Cy3 cluster intensity, sum of 5 cycles each) (fold (ratio)); higher = stronger signal-on switching upon ATP binding; sequences stand for … in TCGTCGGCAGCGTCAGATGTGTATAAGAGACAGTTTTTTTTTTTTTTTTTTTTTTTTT…TC
Conditions: aptamer strand: ATP DNA aptamer (quencher-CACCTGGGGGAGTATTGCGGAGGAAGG + anchor), 100 nM annealed; ATP concentration: 500 uM
Give bare numbers.

| Seq | Quantitative readout |
| --- | --- |
| TAGACAGTTT | 0.993 |
| TGGACGGGGA | 1.03 |
| ATTTTTGGTG | 1.06 |
| TGGGATAAGT | 1.01 |
| TTATGAAAGG | 0.968 |
| TGACTTAGTT | 0.999 |
| TAGTTTGAAT | 1.01 |
| TATGGTAGGG | 0.989 |
| TTATAAAAAA | 1.07 |
| GGTTATCCGG | 1.01 |

Would you mind giving switch fluorescence ratio for every sequence in the list below?
1. GAGTGCGGGC
2. TCCGCCATGG
3. ACTGGGATGG
4. CGTGTGATTT
5. GGATTACTCT

Response:
1. 1.07
2. 2.71
3. 1.03
4. 0.988
5. 1.03

====

Tested on: ATP;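 also: ATP exposure 15 min at 22 °C before imaging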
Assay: switch fluorescence ratio, 500 uM ATP over buffer (Cy3 cluster intensity, sum of 5 cycles each) (fold (ratio)); higher = stronger signal-on switching upon ATP binding; sequences stand for … in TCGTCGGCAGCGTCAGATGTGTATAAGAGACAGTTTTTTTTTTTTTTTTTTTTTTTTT…TC
Settings: aptamer strand: ATP DNA aptamer (quencher-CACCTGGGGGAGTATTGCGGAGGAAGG + anchor), 100 nM annealed; ATP concentration: 500 uM
Quantity: switch fluorescence ratio

| Seq | Target | Result |
| --- | --- | --- |
| AAGGACCGGC | ATP | 0.991 |
| GGGCGAAGCG | ATP | 0.986 |
| TATCGGTTGT | ATP | 1.03 |
| TCCCGGTTTG | ATP | 1.01 |
| TTTCACGCGC | ATP | 1.03 |

Would you mind giving switch fluorescence ratio for every sequence in the list below?
1. CAAGGGAAGT
2. GCTTTAAGGG
3. GAATAAGATC
4. GCCATTAAGA
5. CATGCGGCTA
6. TCAGACGTTT

Response:
1. 0.978
2. 0.995
3. 1.02
4. 1.01
5. 1.05
6. 1.01

Would you mind giving switch fluorescence ratio for every sequence in the list below?
1. TAACGTTTTT
2. GCAGAGGGC
3. TTTTGGGAGT
4. GATTGTCCGT

Response:
1: 1.1; 2: 1; 3: 1; 4: 0.981

Would you mind giving switch fluorescence ratio for every sequence in the list below?
1. ATGTGTCTGT
2. CCCGGGGTCT
3. ACGCAGTATA
4. TTACATATGG
5. CGTCCCTAGC

Response:
1: 1.01; 2: 1.02; 3: 1.05; 4: 1.02; 5: 1.61

Request: Jot down switch fluorescence ratio (ATP) of ATAATTATGC .
Response: 1.03

====

Field: switch fluorescence ratio. Provide a value for each of the sequences that follow.
Test system: ATP;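 also: ATP exposure 15 min at 22 °C before imaging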
Assay: switch fluorescence ratio, 500 uM ATP over buffer (Cy3 cluster intensity, sum of 5 cycles each) (fold (ratio)); higher = stronger signal-on switching upon ATP binding; sequences stand for … in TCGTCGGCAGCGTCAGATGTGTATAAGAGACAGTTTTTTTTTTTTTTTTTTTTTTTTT…TC
Conditions: aptamer strand: ATP DNA aptamer (quencher-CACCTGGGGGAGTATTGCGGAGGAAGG + anchor), 100 nM annealed; ATP concentration: 500 uM
Numbers only.

| Seq | Target | switch fluorescence ratio |
| --- | --- | --- |
| TGTGTGTTGG | ATP | 0.993 |
| TTCTTTGGAC | ATP | 1.06 |
| CCTGGCGCCA | ATP | 1.01 |
| GCTATGGGGA | ATP | 1.02 |

Would you mind giving switch fluorescence ratio for every sequence in the list below?
1. TTATAATCTG
2. TGTTGTGACA
3. GGGTAAATCG
4. TATTCTTTGA
5. TAAGGGCTGA
6. TCGGTGTGAG

Response:
[0.986, 0.967, 0.981, 1.02, 1.01, 1.01]

Would you mind giving switch fluorescence ratio for every sequence in the list below?
1. TATCTGGGTA
2. CATGCGTTG
3. TCAGTTGTGC

Response:
1. 0.978
2. 0.99
3. 1.01

Would you mind giving switch fluorescence ratio for every sequence in the list below?
1. TAAGGTGGCC
2. ATCGGGACGG
3. CTTTTTAGGC
4. TGATGAAATG
5. TTTTCTATCT

Response:
1. 1.01
2. 0.983
3. 1
4. 1.01
5. 1.06

====

Tested on: ATP;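 also: ATP exposure 15 min at 22 °C before imaging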
Assay: switch fluorescence ratio, 500 uM ATP over buffer (Cy3 cluster intensity, sum of 5 cycles each) (fold (ratio)); higher = stronger signal-on switching upon ATP binding; sequences stand for … in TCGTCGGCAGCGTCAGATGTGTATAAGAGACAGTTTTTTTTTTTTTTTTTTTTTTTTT…TC
Settings: aptamer strand: ATP DNA aptamer (quencher-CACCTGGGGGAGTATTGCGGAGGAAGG + anchor), 100 nM annealed; ATP concentration: 500 uM
Field: switch fluorescence ratio. Provide a value for each of the sequences that follow.
One number for each entry.

The cases that follow already have their switch fluorescence ratio on record.
| Seq | switch fluorescence ratio |
| --- | --- |
| CGCGGTATCT | 1.02 |
| CCAGACCAGT | 1.01 |
| TCGGGGATCG | 1.01 |
| CTTTTACCAA | 0.992 |
| CATACACAGG | 1.26 |
| CTTAGGTTTG | 1 |

Would you mind giving switch fluorescence ratio for every sequence in the list below?
1. ACAACGAAAG
2. ATTTTGTTGG
3. TGGGTGGGGG
4. TTTGTCGCAT

Response:
1.04
1.11
1
1.14

Would you mind giving switch fluorescence ratio for every sequence in the list below?
1. ACAATATGGG
2. CCGTAATATT
3. ACGAAGGGCG
4. AAGGGGCGTG
5. CCGGGGTACA
6. GCTATTGATC
7. TCAGTTTGTT

Response:
[1.01, 3.69, 1.02, 0.997, 1.17, 1.02, 0.997]

Would you mind giving switch fluorescence ratio for every sequence in the list below?
1. CTACATGAAA
2. CGTATCAAAC
3. TGAGGGGATG

Response:
[1.01, 1.23, 0.994]

====

Tested on: ATP;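 also: ATP exposure 15 min at 22 °C before imaging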
Test: switch fluorescence ratio, 500 uM ATP over buffer (Cy3 cluster intensity, sum of 5 cycles each) (fold (ratio)); higher = stronger signal-on switching upon ATP binding; sequences stand for … in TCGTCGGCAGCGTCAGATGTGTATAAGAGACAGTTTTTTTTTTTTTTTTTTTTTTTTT…TC
Conditions: aptamer strand: ATP DNA aptamer (quencher-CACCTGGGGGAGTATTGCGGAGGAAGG + anchor), 100 nM annealed; ATP concentration: 500 uM
Quantity: switch fluorescence ratio
Answers are plain numbers.

| Seq | switch fluorescence ratio |
| --- | --- |
| GGGGGCTGGG | 0.992 |
| GAGGGGGCCA | 1.02 |
| ACTGAAGCAT | 1.17 |
| CATATATTGG | 1.02 |
| TGCGATTAAG | 1 |
| CCAATATAGC | 1.21 |
| TGCCAGATTT | 0.993 |
| GAGTAGCGGT | 1.01 |
| GGCGTAGGCC | 1.2 |
| GCGAAAAAGC | 0.978 |

Would you mind giving switch fluorescence ratio for every sequence in the list below?
1. GGATGATGA
2. TCAGTGAGTG

Response:
[1.01, 1]

====

Tested on: ATP;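 also: ATP exposure 15 min at 22 °C before imaging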
Test: switch fluorescence ratio, 500 uM ATP over buffer (Cy3 cluster intensity, sum of 5 cycles each) (fold (ratio)); higher = stronger signal-on switching upon ATP binding; sequences stand for … in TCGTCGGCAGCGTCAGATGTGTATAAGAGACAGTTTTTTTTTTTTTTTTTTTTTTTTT…TC
Details: aptamer strand: ATP DNA aptamer (quencher-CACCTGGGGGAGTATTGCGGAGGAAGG + anchor), 100 nM annealed; ATP concentration: 500 uM
Field: switch fluorescence ratio. Provide a value for each of the sequences that follow.
Give bare numbers.

The cases that follow already have their switch fluorescence ratio on record.
| Seq | Quantitative readout |
| --- | --- |
| CGTTCTAATT | 1.01 |
| CGGGACTGCT | 0.982 |
| AACTATTATG | 1 |
| CATGGATGAA | 1.04 |
| TATAAGGGCG | 0.976 |
| CGTTTTTAAG | 0.982 |
| GTATTATGCG | 1.02 |
| GCTCTCAGGT | 1.12 |
| AAAGGTTCAA | 1.03 |
| AATTTTTGTC | 1.01 |

Would you mind giving switch fluorescence ratio for every sequence in the list below?
1. CATTGCTATT
2. GGTTTTCTCG
3. ATTTTAATAT
4. AGGACTCTCA
5. TTGAACGGGA
6. AGGGGGTATG
7. CGCCCCAGTG
8. GCACATGGTG

Response:
1.02
1.03
0.987
1.01
1.01
0.983
3.02
1.05

Would you mind giving switch fluorescence ratio for every sequence in the list below?
1. GGTGTTTGGA
2. GGGGAATACA

Response:
1: 0.986; 2: 1.02
